Documented activity change, negative = cytotoxicity across a set of molecules
experiment: lymphoblastoid cell cytotoxicity, dose response, cytotoxicity control, plate reader, dry powder, set 2 (AID 624367); conditions: Lymphoblastoid cell line (LCL) cytotoxicity, plate reader; at 35 µM (top of the series)
Response body: numeric value in %, unit text excluded.

>>> print(df.to_string())
                                 smilesrepr  readoutnumber
0  COc1ccc(NC(=O)N(C)C[C@@H]2Oc3cc(C#CCC(C)C)ccc3S(=O)(=O)N([C@@H](C)CO)C[C@@H]2C)cc1         -0.055
1  CC(C)NC(=O)N1[C@H](CO)[C@H](c2ccc(C#CC3CCCCC3)cc2)[C@@H]1C#N          -1.32
2  O=C(Cc1ccccn1)NCC[C@@H]1CC[C@H](NC(=O)Nc2ccc(Cl)cc2)[C@H](CO)O1           7.74
3  COc1ccccc1C(=O)Nc1ccc2c(c1)C(=O)N(C)[C@@H]1CC[C@H](CC(=O)NCCc3ccncc3)O[C@H]1CO2          0.764
4  O=C(C[C@@H]1C[C@@H]2c3cc(NS(=O)(=O)c4ccc(F)cc4)ccc3O[C@@H]2[C@H](CO)O1)NC1CCCCC1          0.429
5  COc1cccc(C#Cc2ccc([C@@H]3[C@@H](C#N)N(C(=O)c4ccccn4)[C@@H]3CO)cc2)c1           7.55
6  Cc1ccc(S(=O)(=O)N(C)C[C@H]2Oc3cc(C#Cc4ccncc4)ccc3S(=O)(=O)N([C@@H](C)CO)C[C@@H]2C)cc1           8.38
7  CN(C)C(=O)c1ccc(-c2cccc(-c3nc(C(=O)NCc4ccccc4)cc4c3[C@@H](CCO)N([S@](=O)C(C)(C)C)C4)c2)cc1           -1.5

**Query** For COc1cccc(S(=O)(=O)N(C)C[C@@H]2Oc3cc(C4=CCCCC4)ccc3S(=O)(=O)N([C@@H](C)CO)C[C@@H]2C)c1 , what is its reported activity change, negative = cytotoxicity?
**Result** -5.63

**Query** Now give it for Cc1cc(C(=O)Nc2ccc3c(c2)C(=O)N(C)[C@H]2CC[C@H](CC(=O)NCc4ccc(-c5ccccc5)cc4)O[C@H]2CO3)no1 too.
**Result** -10.2

**Query** Check COc1cccc(S(=O)(=O)N(C)C[C@H]2Oc3cc(C4=CCCCC4)ccc3S(=O)(=O)N([C@@H](C)CO)C[C@@H]2C)c1 too.
**Result** 4.96

**Query** Another molecule to look at: COc1cccc(C(=O)Nc2ccc3c(c2)C(=O)N(C)C[C@H](OC)[C@@H](C)CN(CCc2ccccc2)[C@@H](C)CO3)c1
**Result** -13

**Query** Please answer likewise for O=C(C[C@@H]1CC[C@H]2[C@@H](COC[C@H](O)CN2Cc2ccc(Oc3ccccc3)cc2)O1)N1CCc2ccccc2C1
**Result** -13.4

**Query** // query: N#C[C@@H]1[C@H](c2ccc(C#Cc3ccccc3F)cc2)[C@@H](CO)N1C(=O)c1cccnc1
**Result** -5.47

====

assay: lymphoblastoid cell cytotoxicity, dose response, cytotoxicity control, plate reader, dry powder, set 2 (AID 624367); conditions: Lymphoblastoid cell line (LCL) cytotoxicity, plate reader; at 35 µM (top of the series)
Active and inactive are the calls of the source. How the calls were made is not given here.
measurementType: activity change, negative = cytotoxicity

**Query** activity change, negative = cytotoxicity lookup needed for CC(C)c1ccc(NC(=O)C[C@H]2CC[C@H]3[C@@H](COc4ccc(NC(=O)Nc5ccc(F)c(F)c5)cc4C(=O)N3C)O2)cc1 , thanks.
**Result** -0.979% (inactive)

**Query** Similarly, C[C@@H](NC(=O)C[C@@H]1C=C[C@@H](NC(=O)Cc2ccccn2)[C@H](CO)O1)c1ccccc1 ?
**Result** 0.18% (inactive)

**Query** Similarly, COc1cccc(S(=O)(=O)N(C)C[C@@H]2Oc3cc(C4=CCCCC4)ccc3S(=O)(=O)N([C@H](C)CO)C[C@H]2C)c1 ?
**Result** 7.75% (inactive)

**Query** Now the compound COC(=O)C[C@@H]1C[C@@H]2c3cc(NC(=O)CN(C)C)ccc3O[C@@H]2[C@@H](CO)O1
**Result** -2.96% (inactive)

**Query** Here is the next compound: O=C(C[C@H]1C[C@@H]2c3cc(NC(=O)c4ccc5c(c4)OCO5)ccc3O[C@@H]2[C@@H](CO)O1)NCc1ccc(Oc2ccccc2)cc1
**Result** -5.15% (inactive)

**Query** What would you report for CO[C@@H]1CN(C)C(=O)c2ccc(NC(C)=O)cc2OC[C@@H](C)N(Cc2ccccc2F)C[C@H]1C ?
**Result** 2.23% (inactive)

**Query** Again, but for C[C@H](CO)N1C[C@H](C)[C@H](CN(C)Cc2ccc(Oc3ccccc3)cc2)Oc2ccc(NC(=O)CCCN(C)C)cc2C1=O
**Result** -0.446% (inactive)
